Ref: ChEMBL document CHEMBL1128589

Test: logD value was determined
Assay type: physicochemical
Conditions: octanol/water
Record t whenever logD is at -0.8 or higher; record f when lower.

Below, 5 molecules whose answers are already recorded.
Oc1c(Cl)ccc2c1C1c3cccc[n+]3C2CC1(c1ccoc1)c1ccoc1 (racemic)    f
Fc1ccc2c(c1)C1c3cccc[n+]3C2CC1(c1ccoc1)c1ccoc1 (racemic)    t
O=C(O)c1ccc2c(c1)C1c3cccc[n+]3C2CC1(c1ccoc1)c1ccoc1 (racemic)    t
Oc1ccc2c(c1)C1c3cccc[n+]3C2CC1(c1ccoc1)c1ccoc1 (racemic)    t
Oc1cccc2c1C1c3cccc[n+]3C2CC1(c1ccccc1)c1ccccc1 (racemic)    t

Hello, I need to know if c1ccc(C2(c3ccccc3)CC3c4ccccc4C2c2cccc[n+]23)cc1 (racemic) has measured logD not below -0.8. Thanks! f

Hello, I need to know if Oc1ccc[n+]2c1C1c3ccccc3C2CC1(c1ccoc1)c1ccoc1 (racemic) has measured logD not below -0.8. Thanks! t

Hello, I need to know if COc1cccc2c1C1c3cccc[n+]3C2CC1(c1ccoc1)c1ccoc1 (racemic) has measured logD not below -0.8. Thanks! f

###

Experiment: pKa value was determined
Type: physicochemical
Metric Name: pKa
No unit in the answer, please; the number alone is enough.

A selection of reference data follows.
c1ccc(C2(c3ccccc3)CC3c4ccccc4C2c2cccc[n+]23)cc1 (racemic)    11.7
c1ccc(C2(N3CCCCC3)CCCCC2)cc1    9.97
CCOC1(OCC)C2c3ccccc3C([n+]3ccccc32)C1(C)C (racemic)    12.2
Oc1cccc2c1C1c3cccc[n+]3C2CC1(c1ccoc1)c1ccoc1 (racemic)    8.6
C[C@]12N[C@H](Cc3ccccc31)c1ccccc12    5.81

// recorded pKa for Oc1ccc[n+]2c1C1c3ccccc3C2CC1(c1ccoc1)c1ccoc1 (racemic) : 4.88

// recorded pKa for Oc1ccc2c(c1)C1c3cccc[n+]3C2CC1(c1ccoc1)c1ccoc1 (racemic) : 8.8

###

Test: Inhibitory activity against NMDA closed channel block
Type: functional
I'd appreciate it if you marked entries satisfied when IC50 is lower than 10 µM and not satisfied when it is not.

Below, 2 molecules whose answers are already recorded.
Oc1ccc[n+]2c1C1c3ccccc3C2CC1(c1ccoc1)c1ccoc1 (racemic)    not satisfied
c1ccc(C2(N3CCCCC3)CCCCC2)cc1    satisfied

Note: attention shifts to another entry.
Item c1ccc(C2(c3ccccc3)CC3c4ccccc4C2c2cccc[n+]23)cc1 (racemic) : IC50 beneath 10 µM, strictly? not satisfied

###

Biological target: Glutamate NMDA receptor
Test: Affinity against 3[H]TCP binding to N-methyl-D-aspartate glutamate receptor in rat brain membranes
pKi: −log10 of the molar value.
Record Y whenever pKi is at 7 or higher; record N when lower.

Brc1ccc(Br)c2c1C1CC(c3ccoc3)(c3ccoc3)C2c2cccc[n+]21 (racemic)    N
Oc1ccc2c(c1)C1c3cccc[n+]3C2CC1(c1ccoc1)c1ccoc1 (racemic)    Y
c1ccc2c(c1)C1CC(c3ccoc3)(c3ccoc3)C2c2c3ccccc3cc[n+]21 (racemic)    Y

Hello, I need to know if Clc1cccc2[n+]1C1CC(c3ccoc3)(c3ccoc3)C2c2ccccc21 (racemic) has measured pKi not below 7. Thanks! N

Hello, I need to know if Oc1cccc2c1C1c3cccc[n+]3C2CC1(c1ccccc1)c1ccccc1 (racemic) has measured pKi not below 7. Thanks! Y

Hello, I need to know if Oc1cccc2[n+]1C1CC(c3ccoc3)(c3ccoc3)C2c2ccccc21 (racemic) has measured pKi not below 7. Thanks! N

###

Target: Glutamate NMDA receptor
Assay: Affinity against 3[H]TCP binding to N-methyl-D-aspartate glutamate receptor in rat brain membranes
Recorded Ki by entry

A selection of reference data follows.
CC12CC(c3ccoc3)(c3ccoc3)C(c3ccccc31)c1cccc[n+]12 (racemic)    0.0012 µM
c1ccc2c(c1)C1CC(c3ccoc3)(c3ccoc3)C2c2cccc[n+]21 (racemic)    0.002 µM
Oc1c(Cl)ccc2c1C1c3cccc[n+]3C2CC1(c1ccoc1)c1ccoc1 (racemic)    0.024 µM
COc1cccc2c1C1c3cccc[n+]3C2CC1(c1ccoc1)c1ccoc1 (racemic)    0.006 µM
COc1ccc[n+]2c1C1c3ccccc3C2CC1(c1ccoc1)c1ccoc1 (racemic)    0.019 µM
O=S(=O)([O-])c1cccc2c1C1c3cccc[n+]3C2CC1(c1ccoc1)c1ccoc1 (racemic)    > 10 µM
COc1cc(OC)c2c(c1)C1CC(c3ccoc3)(c3ccoc3)C2c2cccc[n+]21 (racemic)    3.79 µM
Oc1ccc[n+]2c1C1c3ccccc3C2CC1(c1ccoc1)c1ccoc1 (racemic)    0.294 µM

We next turn to a different compound, shown below.
Fill in: Glutamate NMDA receptor Ki for Fc1ccc2c(c1)C1c3cccc[n+]3C2CC1(c1ccoc1)c1ccoc1 (racemic) = 0.0036 µM

###

Experiment: Inhibitory activity against NMDA closed channel block
Format: functional
Metric Name: pIC50
The read-out pIC50 is expressed as -log10 of concentration in moles per litre.

// recorded pIC50 for Oc1cccc2c1C1c3cccc[n+]3C2CC1(c1ccoc1)c1ccoc1 (racemic) : 5.41

###

Assay: Inhibitory activity against NMDA closed channel block
Type: functional
Recorded pIC50 by entry
The read-out pIC50 is expressed as -log10 of concentration in moles per litre.

A selection of reference data follows.
C[C@]12N[C@H](Cc3ccccc31)c1ccccc12 [DIZOCILPINE]    7.40
CCOC1(OCC)C2c3ccccc3C([n+]3ccccc32)C1(C)C (racemic)    4.85

// recorded pIC50 for Oc1ccc2c(c1)C1c3cccc[n+]3C2CC1(c1ccoc1)c1ccoc1 (racemic) : 5.99
